// values below are pIC50; system is human umbilical vein endothelial cells (HUVEC)
No end group written: not given here.
Hey, just a heads up that pIC50 is the negative log base 10 of the concentration in molar.

Task: Lab note: need pIC50 with human umbilical vein endothelial cells (HUVEC) for entry HKNKGKKNGKHNGWKT-OH [SEQ ID NO:9] , please look it up.
Result: 4.85

Task: Lab note: need pIC50 with human umbilical vein endothelial cells (HUVEC) for entry GHGHGHGKHKNKGKKN-OH [SEQ ID NO:8] , please look it up.
Result: 5.10
